- Tested on: Enterobacter
- test details: Antimicrobial activity against Enterobacter after 18 to 20 hr by agar dilution method
- Assay type: functional
observed property: MIC (µg/mL)
Numeric only. Scale: µg/mL

Sample answers from the record:
given_smiles=COc1cc(Cc2cnc(/N=C3\C(=O)N(CN4CCN(c5ccc(F)cc5)CC4)c4ccc(Cl)cc43)nc2N)cc(OC)c1OC output_unit=µg/mL observed_measurement=625
given_smiles=COc1cccc(N2CCN(CN3C(=O)/C(=N\c4ncc(Cc5cc(OC)c(OC)c(OC)c5)c(N)n4)c4cc(Cl)ccc43)CC2)c1 output_unit=µg/mL observed_measurement=1250
given_smiles=COc1cc(Cc2cnc(/N=C3\C(=O)N(CN4CCN(Cc5ccccc5)CC4)c4ccc(Cl)cc43)nc2N)cc(OC)c1OC output_unit=µg/mL observed_measurement=625

Attention now turns to another entry.
Input COc1cc(Cc2cnc(/N=C3\C(=O)N(CN4CCC(C)CC4)c4ccc(Cl)cc43)nc2N)cc(OC)c1OC . Output MIC: 1250
